Below, each of the molecules is paired with its reported EC50 value.
Biological target: UniProtKB P40763
Assay: Inhibition of […] activation in human AD293 cells incubated […] for 16 hrs followed by compound addition measured after 4 hrs by luciferase reporter gene assay
Format: cell-based

C=C1CC[C@H]2[C@@](C)(CCC(=O)[C@@]2(C)CO[Si](C)(C)C(C)(C)C)[C@@H]1C/C=C1/C(=O)OC[C@H]1OC(C)=O; 7.52 µM

### Prompt Consider the molecule `CC(=O)OC[C@]1(C)C(=O)CC[C@@]2(C)[C@H](C/C=C3/C(=O)OC[C@H]3O[Si](C)(C)C(C)(C)C)[C@@]3(CC[C@@H]21)CO3` tested on UniProtKB P40763; state its EC50.
### Response > 10 µM

### Prompt Consider the molecule `C=C1CC[C@@H]2[C@](C)(COC(C)=O)[C@H](OC(C)=O)CC[C@@]2(C)[C@@H]1C/C=C1/C(=O)OC[C@@H]1O[Si](C)(C)C(C)(C)C` tested on UniProtKB P40763; state its EC50.
### Response > 10 µM

### Prompt Consider the molecule `CC(=O)OC[C@]1(C)C(=O)CC[C@@]2(C)[C@H](C/C=C3/C(=O)OC[C@@H]3O[Si](C)(C)C(C)(C)C)[C@@]3(CC[C@@H]21)CO3` tested on UniProtKB P40763; state its EC50.
### Response > 10 µM

### Prompt Consider the molecule `CC(C)(C)[Si](C)(C)OC[C@]1(C)C(=O)CC[C@@]2(C)[C@H](C/C=C3/C(=O)OC[C@H]3O)[C@]3(CC[C@@H]21)CO3` tested on UniProtKB P40763; state its EC50.
### Response > 10 µM

====

Molecular target: Signal transducer and activator of transcription 3 (Homo sapiens)
Test: Inhibition of IFNgamma-stimulated STAT3 activation in human AD293 cells incubated with IFNgamma for 16 hrs followed by compound addition measured after 24 hrs by luciferase reporter gene assay
Format: cell-based
MEASURED_PROPERTY: EC50

Would you please look over these solved cases?
C=C1CC[C@H]2[C@@](C)(CCC(=O)[C@@]2(C)CO)[C@@H]1C/C=C1/C(=O)OC[C@@H]1OC(C)=O; > 10 µM
C[C@@]12CCC(=O)[C@@](C)(CO)[C@H]1CC[C@]1(CO1)[C@H]2C/C=C1/C(=O)OC[C@H]1O; > 10 µM

### Prompt Return the recorded EC50 value; entry: `CC(C)(C)[Si](C)(C)OC[C@]1(C)C(=O)CC[C@@]2(C)[C@H](C/C=C3/C(=O)OC[C@H]3O)[C@]3(CC[C@@H]21)CO3`
### Response > 10 µM

====

Biological target: Signal transducer and activator of transcription 3 (Homo sapiens, UniProt P40763)
Sequence (P40763 whole entry): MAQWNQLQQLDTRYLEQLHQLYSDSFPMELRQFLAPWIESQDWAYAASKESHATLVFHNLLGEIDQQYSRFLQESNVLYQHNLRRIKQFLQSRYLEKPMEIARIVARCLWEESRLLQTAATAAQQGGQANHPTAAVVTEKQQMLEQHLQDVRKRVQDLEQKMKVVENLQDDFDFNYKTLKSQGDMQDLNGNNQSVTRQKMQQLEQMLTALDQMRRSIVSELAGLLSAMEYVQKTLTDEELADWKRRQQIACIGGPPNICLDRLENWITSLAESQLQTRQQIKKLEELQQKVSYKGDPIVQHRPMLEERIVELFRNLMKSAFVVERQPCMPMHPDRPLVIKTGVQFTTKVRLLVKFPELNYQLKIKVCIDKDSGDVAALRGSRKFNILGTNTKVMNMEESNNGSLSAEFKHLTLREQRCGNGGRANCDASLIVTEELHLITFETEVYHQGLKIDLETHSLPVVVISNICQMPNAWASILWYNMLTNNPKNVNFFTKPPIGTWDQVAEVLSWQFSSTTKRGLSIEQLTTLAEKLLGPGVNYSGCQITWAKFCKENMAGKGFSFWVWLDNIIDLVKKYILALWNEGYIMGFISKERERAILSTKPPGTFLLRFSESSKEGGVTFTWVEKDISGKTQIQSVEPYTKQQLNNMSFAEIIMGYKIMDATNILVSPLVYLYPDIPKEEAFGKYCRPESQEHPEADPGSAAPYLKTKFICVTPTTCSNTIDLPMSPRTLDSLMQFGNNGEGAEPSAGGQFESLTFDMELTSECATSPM
Assay: Inhibition of IL-6 stimulated STAT3 activation in human AD293 cells incubated with IL-6 for 16 hrs followed by compound addition measured after 6 hrs by luciferase reporter gene assay
Format: cell-based
Below, each of the compounds is paired with its reported pEC50 value.
Formally, pEC50 is defined as -log10 of the concentration c, with c in mol/L.

Would you please look over these solved cases?
C=C1CC[C@H]2[C@@](C)(CCC(=O)[C@@]2(C)CO[Si](C)(C)C(C)(C)C)[C@@H]1C/C=C1/C(=O)OC[C@H]1OC(C)=O; 6.00
C=C1CC[C@H]2[C@@](C)(CCC(=O)[C@@]2(C)CO[Si](C)(C)C(C)(C)C)[C@@H]1C/C=C1/C(=O)OC[C@@H]1O; 5.36
CC(=O)OC[C@]1(C)C(=O)CC[C@@]2(C)[C@H](C/C=C3/C(=O)OC[C@@H]3O[Si](C)(C)C(C)(C)C)[C@@]3(CC[C@@H]21)CO3; 5.59
CC(C)(C)[Si](C)(C)O[C@@H]1COC(=O)/C1=C/C[C@@H]1[C@]2(CC[C@@H]3[C@](C)(CO)[C@H](O)CC[C@]31C)CO2; 5.52

### Prompt Return the recorded pEC50 value; entry: `C=C1CC[C@@H]2[C@](C)(CO)[C@H](O)CC[C@@]2(C)[C@@H]1C/C=C1/C(=O)OC[C@H]1O[Si](C)(C)C(C)(C)C`
### Response 4.98
